- Tested on: AMPK
- assaySummary: Thr172 phosphorylation of AMPK in L6 myotubes, Western blot of whole cell lysates
- Format: cell-based
- conditionDetails: L6 myotubes
assayMetric: Thr172 phosphorylation in AMPK / AMPK activation (result in words)

> print(dat)
                                   molecule                 result
1  Oc1nc2ccc(Br)cc2s1 [Compound 15, 6-bromo-2-benzothiazolinone]  significantly induced
2  CCOc1ccc2nc(S)sc2c1 [Compound 4, 6-ethoxybenzo[d]thiazole-2-thiol]  significantly induced

====

assayMetric: melting point

> print(dat)
                                   molecule         result
1  CCOc1ccc2nc(SSc3nc4ccc(OCC)cc4s3)sc2c1 [Compound 31]  185 to 190 °C
2  CCOc1ccc2nc(SCCC(=O)O)sc2c1 [Compound 25]  175 to 178 °C
3  CCC(CC)CSc1nc2ccc(O)cc2s1 [Compound 21, 2-(2-ethylbutylthio)benzothiazol-6-ol]  105 to 110 °C

Value sought for every listed molecule: melting point.
1. CCCCSc1nc2ccc(O)cc2s1 [Compound 23, 2-(butylthio)benzothiazol-6-ol]
2. CCCSc1nc2ccc(O)cc2s1 [Compound 20, 2-(propylthio)benzothiazol-6-ol]

Solution:
80 to 85 °C
67 to 70 °C
